- measured on: Inadl_9, Q8NI35
- Sequence (Q8NI35 1530-1615): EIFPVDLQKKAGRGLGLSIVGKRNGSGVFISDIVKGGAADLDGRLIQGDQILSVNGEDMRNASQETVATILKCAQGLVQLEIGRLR
- test name: holdup assay
- Design: key: below the threshold = too weak to quantify, mostly under pKd 3.1 to 4
- condition set: plain residues with an end cap or a label only (N-terminal biotin on a linker: ado-ado)
outcome measure: pKd

Example entries and their recorded answers appear below.
EPQYQPGENL [SRC, P12931] | below the threshold
SVTSERETNI [SLC16A7, O60669] | below the threshold
PTPDLPQTRV [KLHDC7A, Q5VTJ3] | 3.51
GIKKITSTAL [RPS6KA3, P51812] | below the threshold
IDESKKEWLI [CNTNAP2, Q9UHC6] | below the threshold

Exam item: # get_value(readout='pKd', item= PSVGSKKTVL [REELD1, A0A1B0GV85] )
Marked response: below the threshold

Exam item: What does the record list as pKd for QLSFNTDTLC [ABCA2, Q9BZC7] ?
Marked response: below the threshold

Exam item: // lookup pKd for SFISKKEWYV [NECTIN1, Q15223]
Marked response: 4.28

Source of measurements: paper PMC9482650
